Biological target: TJP1_2, Q07157
Sequence (Q07157 181-274): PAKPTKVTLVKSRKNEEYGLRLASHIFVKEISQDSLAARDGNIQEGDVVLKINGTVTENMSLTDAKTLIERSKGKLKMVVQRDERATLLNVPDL
Test: holdup assay
Design: key: below the threshold = too weak to quantify, mostly under pKd 3.1 to 4
Details: plain residues with an end cap or a label only (N-terminal biotin on a linker: ado-ado)
result type: pKd

Before answering, review these 5 worked examples.
- binder: "VDSTVKVWTC [TRAF7, Q6Q0C0]"
  pKd: "below the threshold"
- binder: "VYPNAKVELV [PDLIM4_iso2, P50479]"
  pKd: 3.52
- binder: "IPLDGETEEL [MYOZ1, Q9NP98]"
  pKd: "below the threshold"
- binder: "SARSRLSSNL [HCN2, Q9UL51]"
  pKd: "below the threshold"
- binder: "ETQVTAETVI [TMEM225B, P0DP42]"
  pKd: "below the threshold"

### Prompt Please indicate pKd recorded for KSGKQTMLVV [TRIM29, Q14134]
### Response 3.88

### Prompt Please indicate pKd recorded for SAAKVLTSMC [GHRHR, Q02643]
### Response below the threshold

### Prompt Please indicate pKd recorded for VKPQVSESKL [ACOT8, O14734]
### Response below the threshold
